- system-name: T1, Human plasmin (human, UniProt P00747 97-810)
- T1 construct: mature
- T1 sequence (P00747 97-810): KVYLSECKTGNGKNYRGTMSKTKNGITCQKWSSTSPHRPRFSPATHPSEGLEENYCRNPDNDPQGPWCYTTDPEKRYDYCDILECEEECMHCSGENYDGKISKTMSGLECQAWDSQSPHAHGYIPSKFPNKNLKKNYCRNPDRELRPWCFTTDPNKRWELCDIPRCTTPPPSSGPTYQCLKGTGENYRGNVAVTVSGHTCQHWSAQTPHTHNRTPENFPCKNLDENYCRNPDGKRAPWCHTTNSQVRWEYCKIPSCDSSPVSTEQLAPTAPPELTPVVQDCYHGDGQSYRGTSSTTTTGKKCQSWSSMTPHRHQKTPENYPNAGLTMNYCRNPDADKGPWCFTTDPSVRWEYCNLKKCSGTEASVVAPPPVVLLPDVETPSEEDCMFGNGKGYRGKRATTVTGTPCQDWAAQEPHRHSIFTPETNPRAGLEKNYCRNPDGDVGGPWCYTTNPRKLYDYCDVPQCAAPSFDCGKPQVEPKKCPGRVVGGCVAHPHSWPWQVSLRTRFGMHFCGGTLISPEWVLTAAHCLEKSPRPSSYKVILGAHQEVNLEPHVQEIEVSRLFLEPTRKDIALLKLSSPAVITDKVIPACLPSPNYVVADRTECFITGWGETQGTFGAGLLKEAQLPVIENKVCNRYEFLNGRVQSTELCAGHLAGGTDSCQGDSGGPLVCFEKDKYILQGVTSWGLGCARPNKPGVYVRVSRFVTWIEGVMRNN
- measurement-description: plasmin inhibition kinetics (kinetic profile)
measure: Ki (nM)

- Textilinin 2 (other, also called Txln 2) KDRPELCELPPDTGPCRVRFPSFYYNPDEQKCLEFIYGGCEGNANNFITKEECESTCAA: 2
